Test system: Staphylococcus aureus bacteria (ATCC 9604 SV)
Assay: Minimal inhibitory concentration (MIC), broth microdilution
Format: cell-based
Conditions: Staphylococcus aureus ATCC 9604 SV, 24 h at 37° C.
Task for the reader: assign each of the following compounds its reported MIC.

Please review the following examples before continuing.
| compound | MIC |
| --- | --- |
| CC1(C)C(=O)N(c2cc(Cl)cc(Cl)c2)N=C1c1ccccc1 [Compound 4] | >8.33 µg/mL |
| Cc1cnc(NC(=O)Nc2cc(C(F)(F)F)cc(C(F)(F)F)c2)s1 [Compound 122] | >18.5 µg/mL |
| O=C1C2CCCC2=NN1c1cc(Cl)cc(Cl)c1 (centres unmarked) [Compound 12] | >6.73 µg/mL |
| CC(C)(C)c1cc(NC(=O)Nc2cc(C(F)(F)F)cc(C(F)(F)F)c2)n(-c2ccc(Br)cc2)n1 [Compound 101] | <0.824 µg/mL |
| O=C(Nc1cc(Cl)cc(Cl)c1)Nc1ccnn1-c1ccc(Br)cc1 [Compound 93] | <0.639 µg/mL |

Give one value of MIC per listed compound.
1. O=C(Nc1ccc(F)c(C(F)(F)F)c1)Nc1nc(-c2ccc(F)c(F)c2)cs1 [Compound 168]
2. O=C(Nc1cc(C(F)(F)F)cc(C(F)(F)F)c1)Nc1c2c(nn1-c1ccc(Br)cc1)CCCC2 [Compound 106]
3. O=C(Nc1cc(C(F)(F)F)cc(C(F)(F)F)c1)Nc1cc(-c2ccco2)nn1-c1ccc(Br)cc1 [Compound 113]

1: <0.626 µg/mL; 2: >27.4 µg/mL; 3: <0.839 µg/mL

====

Test system: Staphylococcus aureus bacteria (ATCC 9604 SV)
Assay: Minimal inhibitory concentration (MIC), broth microdilution
Type: cell-based
Conditions: Staphylococcus aureus ATCC 9604 SV, 24 h at 37° C.
Task for the reader: assign each of the following compounds its reported MIC.

Give one value of MIC per listed compound.
1. O=C(Nc1cc(C(F)(F)F)cc(C(F)(F)F)c1)Nc1nc(-c2cc(CO)no2)cs1
2. CCOC(=O)c1cnn(-c2ccc(Br)cc2)c1NC(=O)Nc1cc(C(F)(F)F)cc(C(F)(F)F)c1
3. O=C(Nc1cc(C(F)(F)F)cc(C(F)(F)F)c1)Nc1cc(-c2ccsc2)nn1-c1ccc(Br)cc1
4. O=C1CC(C2CCCCC2)=NN1c1cc(Cl)cc(Cl)c1

>22.6 mg/L
<0.848 mg/L
<0.863 mg/L
>7.78 mg/L

====

Task for the reader: assign each of the following molecules its reported MIC.
System: Staphylococcus aureus bacteria (ATCC 9604 SV)
Assay: Minimal inhibitory concentration (MIC), broth microdilution
Format: cell-based
Details: Staphylococcus aureus ATCC 9604 SV, 24 h at 37° C.

Please review the following examples before continuing.
| molecule | MIC |
| --- | --- |
| O=C(Nc1cc(C(F)(F)F)cc(C(F)(F)F)c1)Nc1cc(-c2cccs2)nn1-c1ccc(Br)cc1 | <0.863 µg/mL |
| O=C(Nc1nc(-c2ccc(Cl)cc2)cs1)Nc1cc(Cl)c(Cl)cc1Cl | >21.7 µg/mL |
| O=C(Nc1ccc(Cl)c(C(F)(F)F)c1)Nc1cc(-c2ccccc2)nn1-c1ccc(C(F)(F)F)cc1 | <0.787 µg/mL |
| O=C1CC(c2ccccn2)=NN1c1cc(Cl)cc(Cl)c1 | >7.65 µg/mL |
| Cc1ccc(C2=NN(c3cc(Cl)cc(Cl)c3)C(=O)C2)cc1 | >7.98 µg/mL |

Annotate the molecule O=C1C2CCCCC2=NN1c1cc(Cl)cc(Cl)c1 (stereo not drawn) with its measured MIC.
>7.08 µg/mL
